These measurements were taken from patent US6737383B1.

- Test system: corn
- assay_info: Test B pre/postemergence corn
- Type: in vivo, Zea mays
- condition_summary: Preemergence, Rate 250 g/ha; scale of 0 to 10 where 0 is no effect and 10 is complete control
Entries and their Plant response rating, Corn
# output: bare number, no unit

Below, 4 molecules whose answers are already recorded.
CCc1noc(C)c1-n1c(=O)on(C(=O)N(c2ccc(F)cc2)C(C)C)c1=O
0
Cc1cccc(C)c1-n1c(=O)on(C(=O)N(c2ccc(F)cc2F)C(C)C)c1=O
0
COc1ccc(N(C(=O)n2oc(=O)n(-c3ccccc3C)c2=O)C(C)C)cc1
0
CC(C)N(C(=O)n1oc(=O)n(-c2ccccc2Cl)c1=O)c1ccc(F)cc1
0

Now consider the entry below.
query: For the molecule `CCn1c(=O)on(C(=O)N(c2ccc(F)cc2)C(C)C)c1=O` , report Plant response rating, Corn.
result: 9

---

- Tested on: blackgrass
- assay_info: Test B pre/postemergence blackgrass
- Type: in vivo, Alopecurus myosuroides
- condition_summary: Rate 500 g/ha, Postemergence; scale 0 to 10
Entries and their Blackgrass plant response rating
# output: bare number, no unit

Cc1ccccc1-n1c(=O)on(C(=O)N(c2ccc(S(C)(=O)=O)cc2)C(C)C)c1=O
0

query: For the compound `Cc1ccccc1-n1c(=O)on(C(=O)N(c2ccc(-c3ccccc3)cc2)C(C)C)c1=O` , report Blackgrass plant response rating.
result: 0

query: For the compound `Cc1ccccc1-n1c(=O)on(C(=O)N(c2ccccc2F)C(C)C)c1=O` , report Blackgrass plant response rating.
result: 7

query: For the compound `Cc1ccccc1Cn1c(=O)on(C(=O)N(c2ccc(Cl)cc2)C(C)C)c1=O` , report Blackgrass plant response rating.
result: 5

---

Entries and their Giant foxtail plant response rating
- Test system: giant foxtail
- assay_info: Test B pre/postemergence giant foxtail
- Assay type: in vivo, Setaria faberii
- condition_summary: Postemergence, Rate 250 g/ha; scale 0 to 10
# output: bare number, no unit

CC(C)N(C(=O)n1oc(=O)n(C(C)CCl)c1=O)c1ccc(Cl)cc1 (stereo not shown) [Compound 456]
3
COC(C)n1c(=O)on(C(=O)N(c2ccc(F)cc2)C(C)C)c1=O (stereo not shown) [Compound 439]
0
CC(C)N(C(=O)n1oc(=O)n(Cc2cnc(Cl)s2)c1=O)c1ccc(F)cc1 [Compound 482]
0

Now consider the entry below.
query: For the compound CC(C)N(C(=O)n1oc(=O)n(CC#N)c1=O)c1ccc(F)cc1F [Compound 431] , report Giant foxtail plant response rating.
result: 0

---

- Test system: morningglory
- assay_info: Test B pre/postemergence morningglory
- Assay type: in vivo, Ipomoea hederacea
- condition_summary: Preemergence, Rate 250 g/ha; scale of 0 to 10 where 0 is no effect and 10 is complete control
quantity_measured: Plant response rating, Morningglory
# output: bare number, no unit

Below, 3 molecules whose answers are already recorded.
CCN(C(=O)n1oc(=O)n(Cc2cccs2)c1=O)C1CCCCC1
0
CCn1c(=O)on(C(=O)N(c2ccc(F)cc2F)C(C)C)c1=O
4
CCN(CC)C(=O)n1oc(=O)n(-c2ccc(OC(F)(F)F)cc2)c1=O
0

query: For the molecule `Cc1nn(C)c(Cl)c1-n1c(=O)on(C(=O)N(c2ccc(F)cc2)C(C)C)c1=O` , report Plant response rating, Morningglory.
result: 0

query: For the molecule `CC(C)N(C(=O)n1oc(=O)n(-c2cnn(C)c2)c1=O)c1ccc(F)cc1` , report Plant response rating, Morningglory.
result: 0
